Tested on: chicken embryo
Assay: Chicken embryonic assay
Format: in vivo
Settings: higher dose (0.5 mM: 450–500 μg/kg; E2 0.1 mM: 91 μg/kg), egg injection, day 18
test-readout: weights: liver (g)

>  <compound>
O=c1cc(-c2ccc(O)cc2)oc2cc(O)cc(O)c12 [apigenin]

>  <test-readout>
weights: liver

>  <meas-value>
0.41

$$$$
>  <compound>
O=c1cc(-c2ccc(O)c(O)c2)oc2cc(O)cc(O)c12 [luteolin]

>  <test-readout>
weights: liver

>  <meas-value>
0.49

$$$$
>  <compound>
C[C@]12CC[C@@H]3c4ccc(O)cc4CC[C@H]3[C@@H]1CC[C@@H]2O [E2, 17β-estradiol, reference compound]

>  <test-readout>
weights: liver

>  <meas-value>
0.47

$$$$
>  <compound>
O=c1c(O)c(-c2ccc(O)c(O)c2)oc2cc(O)cc(O)c12 [quercetin]

>  <test-readout>
weights: liver

>  <meas-value>
0.44

$$$$
>  <compound>
O=c1c(-c2ccc(O)cc2)coc2cc(O)cc(O)c12 [genistein]

>  <test-readout>
weights: liver

>  <meas-value>
0.50

$$$$

====

# reported weights: embryo; entries follow
Test system: chicken embryo
Test: Chicken embryonic assay
Format: in vivo
Details: lower dose (0.05 mM: 45–50 μg/kg; E2 0.01 mM: 9.1 μg/kg), egg injection, day 18
test-readout: weights: embryo (g)

>  <compound>
O=c1c(O)c(-c2ccc(O)c(O)c2)oc2cc(O)cc(O)c12

>  <meas-value>
22.11

$$$$
>  <compound>
O=c1cc(-c2ccc(O)cc2)oc2cc(O)cc(O)c12

>  <meas-value>
24.29

$$$$
>  <compound>
O=c1cc(-c2ccc(O)c(O)c2)oc2cc(O)cc(O)c12

>  <meas-value>
19.75

$$$$
>  <compound>
O=c1c(-c2ccc(O)cc2)coc2cc(O)cc(O)c12

>  <meas-value>
21.96

$$$$
>  <compound>
C[C@]12CC[C@@H]3c4ccc(O)cc4CC[C@H]3[C@@H]1CC[C@@H]2O [E2, 17β-estradiol, reference compound]

>  <meas-value>
20.24

$$$$

====

System: chicken embryo
Test: Chicken embryonic assay
Assay type: in vivo
Details: higher dose (0.5 mM: 450–500 μg/kg; E2 0.1 mM: 91 μg/kg), egg injection, day 18

>  <compound>
O=c1c(-c2ccc(O)cc2)coc2cc(O)cc(O)c12 [genistein]

>  <number of malformation chicken embryo>
0

$$$$
>  <compound>
C[C@]12CC[C@@H]3c4ccc(O)cc4CC[C@H]3[C@@H]1CC[C@@H]2O [E2, 17β-estradiol, reference compound]

>  <number of malformation chicken embryo>
0

$$$$
>  <compound>
O=c1cc(-c2ccc(O)c(O)c2)oc2cc(O)cc(O)c12 [luteolin]

>  <number of malformation chicken embryo>
1

$$$$
>  <compound>
O=c1cc(-c2ccc(O)cc2)oc2cc(O)cc(O)c12 [apigenin]

>  <number of malformation chicken embryo>
0

$$$$

====

Test system: chicken embryo
Assay: Chicken embryonic assay
Type: in vivo
Conditions: higher dose (0.5 mM: 450–500 μg/kg; E2 0.1 mM: 91 μg/kg), egg injection, day 18
# reported mortality rate; entries follow

>  <compound>
O=c1cc(-c2ccc(O)cc2)oc2cc(O)cc(O)c12

>  <result-units>
%

>  <mortality rate>
10.0

$$$$
>  <compound>
O=c1c(O)c(-c2ccc(O)c(O)c2)oc2cc(O)cc(O)c12

>  <result-units>
%

>  <mortality rate>
12.5

$$$$
>  <compound>
O=c1c(-c2ccc(O)cc2)coc2cc(O)cc(O)c12

>  <result-units>
%

>  <mortality rate>
50

$$$$
>  <compound>
C[C@]12CC[C@@H]3c4ccc(O)cc4CC[C@H]3[C@@H]1CC[C@@H]2O [E2, 17β-estradiol, reference compound]

>  <result-units>
%

>  <mortality rate>
33.3

$$$$

====

Test system: chicken embryo
Assay: Chicken embryonic assay
Format: in vivo
Conditions: lower dose (0.05 mM: 45–50 μg/kg; E2 0.01 mM: 9.1 μg/kg), egg injection, day 18

>  <molecule>
C[C@]12CC[C@@H]3c4ccc(O)cc4CC[C@H]3[C@@H]1CC[C@@H]2O [E2, 17β-estradiol, reference compound]

>  <number of dead chicken embryo>
7

$$$$
>  <molecule>
O=c1c(-c2ccc(O)cc2)coc2cc(O)cc(O)c12 [genistein]

>  <number of dead chicken embryo>
4

$$$$
>  <molecule>
O=c1cc(-c2ccc(O)cc2)oc2cc(O)cc(O)c12 [apigenin]

>  <number of dead chicken embryo>
1

$$$$
>  <molecule>
O=c1cc(-c2ccc(O)c(O)c2)oc2cc(O)cc(O)c12 [luteolin]

>  <number of dead chicken embryo>
2

$$$$
>  <molecule>
O=c1c(O)c(-c2ccc(O)c(O)c2)oc2cc(O)cc(O)c12 [quercetin]

>  <number of dead chicken embryo>
2

$$$$
